Settings: in acetone, 288.15 K
measurement.kind: solubility (mole fraction)
Give only the figure.

**Q:** Identify measured solubility (mole fraction) associated with C#C[C@]1(O)C=C[C@H]2[C@@H]3CCC4=CC(=O)CC[C@@H]4[C@H]3CC[C@@]21CC
**A:** 0.00499

---

Conditions: in water, 313.15 K
measurement.kind: solubility (mole fraction)

**Q:** Identify measured solubility (mole fraction) associated with C#C[C@]1(O)C=C[C@H]2[C@@H]3CCC4=CC(=O)CC[C@@H]4[C@H]3CC[C@@]21CC
**A:** 1.62e-05

---

Conditions: in isopropyl acetate, 288.15 K
measurement.kind: solubility (mole fraction)
Give only the figure.

**Q:** Identify measured solubility (mole fraction) associated with C#C[C@]1(O)C=C[C@H]2[C@@H]3CCC4=CC(=O)CC[C@@H]4[C@H]3CC[C@@]21CC
**A:** 0.0213

---

Settings: in methanol, 323.15 K
measurement.kind: solubility (mole fraction)

**Q:** Identify measured solubility (mole fraction) associated with C#C[C@]1(O)C=C[C@H]2[C@@H]3CCC4=CC(=O)CC[C@@H]4[C@H]3CC[C@@]21CC
**A:** 0.0168

---

Details: in acetonitrile, 323.15 K
measurement.kind: solubility (mole fraction)
Give only the figure.

**Q:** Identify measured solubility (mole fraction) associated with C#C[C@]1(O)C=C[C@H]2[C@@H]3CCC4=CC(=O)CC[C@@H]4[C@H]3CC[C@@]21CC
**A:** 0.00868

---

Conditions: in n-butanol, 293.15 K
measurement.kind: solubility (mole fraction)

**Q:** Identify measured solubility (mole fraction) associated with C#C[C@]1(O)C=C[C@H]2[C@@H]3CCC4=CC(=O)CC[C@@H]4[C@H]3CC[C@@]21CC
**A:** 0.00549

---

Conditions: in acetone, 308.15 K
measurement.kind: solubility (mole fraction)
Give only the figure.

**Q:** Identify measured solubility (mole fraction) associated with C#C[C@]1(O)C=C[C@H]2[C@@H]3CCC4=CC(=O)CC[C@@H]4[C@H]3CC[C@@]21CC
**A:** 0.0147

---

Conditions: in methanol, 288.15 K
measurement.kind: solubility (mole fraction)
Give only the figure.

**Q:** Identify measured solubility (mole fraction) associated with C#C[C@]1(O)C=C[C@H]2[C@@H]3CCC4=CC(=O)CC[C@@H]4[C@H]3CC[C@@]21CC
**A:** 0.0055

---

Settings: in acetone, 283.15 K
measurement.kind: solubility (mole fraction)
Give only the figure.

**Q:** Identify measured solubility (mole fraction) associated with C#C[C@]1(O)C=C[C@H]2[C@@H]3CCC4=CC(=O)CC[C@@H]4[C@H]3CC[C@@]21CC
**A:** 0.00379

---

Conditions: in ethanol, 318.15 K
measurement.kind: solubility (mole fraction)

**Q:** Identify measured solubility (mole fraction) associated with C#C[C@]1(O)C=C[C@H]2[C@@H]3CCC4=CC(=O)CC[C@@H]4[C@H]3CC[C@@]21CC
**A:** 0.0123

Data origin, for the record: BigSolDB 2.1
